Listed below: EC50 values for each entry.
target: RIPK1 (recombinant GST-RIPK1 kinase domain, residues 1-327) (Homo sapiens (Human), UniProt Q13546); assay: RIPK1-ADP-Glo Enzymatic Assay; assay type: biochemical; conditions: ADP-Glo; 25 nM GST-RIPK1, 300 μM ATP; assay lower limit ~25 nM; read-out: RIPK1 V0 Ec50
Sequence (Q13546 1-327): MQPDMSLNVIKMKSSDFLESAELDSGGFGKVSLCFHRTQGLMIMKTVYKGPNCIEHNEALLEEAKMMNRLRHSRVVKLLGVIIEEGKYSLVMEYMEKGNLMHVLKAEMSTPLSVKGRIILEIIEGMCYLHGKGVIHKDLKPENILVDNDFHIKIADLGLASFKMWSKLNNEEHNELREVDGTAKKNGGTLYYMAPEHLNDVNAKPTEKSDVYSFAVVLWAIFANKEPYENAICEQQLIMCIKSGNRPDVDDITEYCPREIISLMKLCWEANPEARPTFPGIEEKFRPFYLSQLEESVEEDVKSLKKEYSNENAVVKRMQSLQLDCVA
observable: EC50 (nM)

>>> df
                                    molecule  observable  value_modifier  assay_value
 0  O=C(c1ccoc1C(F)(F)F)N1CCC2(CC1)O[C@@H]1CC[C@@H](c3cc(F)cc(F)c3)N1C2=O        EC50               =           50
 1  O=C1N2[C@@H](CC[C@H]2c2ccccc2)OC12CCN(c1nccc(-c3ccccn3)n1)CC2        EC50               =           42
 2  CCOc1cnc(N2CCC3(CC2)O[C@@H]2CC[C@@H](c4cc(F)cc(F)c4)N2C3=O)nc1        EC50               =          243
 3  O=C(c1ccccc1)N1CCC2(CC1)O[C@@H]1CC[C@@H](c3ccccc3)N1C2=O        EC50               <           25
 4  O=C1N2[C@@H](CC[C@H]2c2ccccc2)OC12CCN(c1cc(-c3ccsc3)ccn1)CC2        EC50               <           25
 5  O=C1N2[C@@H](CC[C@H]2c2cc(F)cc(F)c2)OC12CCN(c1ccc(-c3ncco3)c3ncnn13)CC2        EC50               <           25
 6  N#Cc1ccc(N2CCC3(CC2)O[C@@H]2CC[C@@H](c4ccccc4)N2C3=O)n2ncc(C(F)F)c12        EC50               <           25
 7  CC1CN(c2cccc3ncnn23)CCC12O[C@@H]1CC[C@@H](c3ccccc3)N1C2=O (stereo partly drawn) [Example 4.245]        EC50               <           25
 8  C#Cc1ccccc1C(=O)N1CCC2(CC1)O[C@@H]1CC[C@@H](c3cc(F)cc(F)c3)N1C2=O        EC50               =          143
 9  COc1ccc(C(=O)N2CCC3(CC2)O[C@@H]2CC[C@@H](c4cc(F)cc(F)c4)N2C3=O)c(F)c1        EC50               =         24.8
10  COC1(C)CN(C(=O)c2nc(N3CCC4(CC3)O[C@@H]3CC[C@@H](c5cc(F)cc(F)c5)N3C4=O)ncc2F)C1        EC50               =          271
11  CC1CN(C(=O)c2ccccc2)CCC12O[C@@H]1CC[C@@H](c3cc(F)cc(F)c3)N1C2=O (stereo partly drawn) [Example 6.110]        EC50               <           25
12  Cc1ccc(C)c(C(=O)N2CCC3(CC2)O[C@@H]2CC[C@@H](c4ccccc4)N2C3=O)c1        EC50               =         75.1
13  O=C(c1ccccc1)N1CCC2(CC1)CC1COC(c3cc(F)cc(F)c3)N1C2=O (stereo not drawn)        EC50               =         29.1
14  Cc1ncc([C@@H]2CC[C@H]3OC4(CCN(C(=O)c5ccccc5)CC4F)C(=O)N32)cc1F (stereo partly drawn) [Example 2.9]        EC50               =          106
